molecular target: hSGLT2 (Homo sapiens, UniProt P31639); experiment: [14C]-αMDG uptake in HEK-293T cells expressing hSGLT2; conditions: from IC50 (IC50 is twice the Ki), extracellular
Sequence (P31639 whole entry): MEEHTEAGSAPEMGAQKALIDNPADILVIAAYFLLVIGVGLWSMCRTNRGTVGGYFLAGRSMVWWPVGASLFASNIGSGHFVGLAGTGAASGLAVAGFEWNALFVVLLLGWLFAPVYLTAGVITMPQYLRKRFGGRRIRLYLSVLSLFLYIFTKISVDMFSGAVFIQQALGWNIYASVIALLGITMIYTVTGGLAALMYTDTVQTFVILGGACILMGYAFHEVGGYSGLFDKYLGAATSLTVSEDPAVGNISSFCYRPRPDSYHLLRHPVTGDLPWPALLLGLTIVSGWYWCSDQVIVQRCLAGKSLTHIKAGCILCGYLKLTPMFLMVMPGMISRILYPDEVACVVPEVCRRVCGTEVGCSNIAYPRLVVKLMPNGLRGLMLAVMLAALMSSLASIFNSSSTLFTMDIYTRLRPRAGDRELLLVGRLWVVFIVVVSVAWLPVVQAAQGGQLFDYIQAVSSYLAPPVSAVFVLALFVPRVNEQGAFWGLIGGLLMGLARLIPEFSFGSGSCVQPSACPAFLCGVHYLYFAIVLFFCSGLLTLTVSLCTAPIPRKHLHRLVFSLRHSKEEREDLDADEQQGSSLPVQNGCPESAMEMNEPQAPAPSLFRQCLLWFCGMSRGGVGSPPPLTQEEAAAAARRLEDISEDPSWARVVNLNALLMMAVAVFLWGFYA
Endpoint Label: Ki

Lab book: Ki of OC[C@H]1O[C@@H](c2ccc(Cl)c(Cc3ccc(-c4ccc(F)nc4)s3)c2)[C@H](O)[C@@H](O)[C@@H]1O noted as ~2 nM

---

target: hSGLT1 (Homo sapiens, UniProt P13866); test: Whole-cell patch clamp, glucose-induced current, extracellular inhibitor, HEK-293T cells expressing hSGLT1
Sequence (P13866 whole entry): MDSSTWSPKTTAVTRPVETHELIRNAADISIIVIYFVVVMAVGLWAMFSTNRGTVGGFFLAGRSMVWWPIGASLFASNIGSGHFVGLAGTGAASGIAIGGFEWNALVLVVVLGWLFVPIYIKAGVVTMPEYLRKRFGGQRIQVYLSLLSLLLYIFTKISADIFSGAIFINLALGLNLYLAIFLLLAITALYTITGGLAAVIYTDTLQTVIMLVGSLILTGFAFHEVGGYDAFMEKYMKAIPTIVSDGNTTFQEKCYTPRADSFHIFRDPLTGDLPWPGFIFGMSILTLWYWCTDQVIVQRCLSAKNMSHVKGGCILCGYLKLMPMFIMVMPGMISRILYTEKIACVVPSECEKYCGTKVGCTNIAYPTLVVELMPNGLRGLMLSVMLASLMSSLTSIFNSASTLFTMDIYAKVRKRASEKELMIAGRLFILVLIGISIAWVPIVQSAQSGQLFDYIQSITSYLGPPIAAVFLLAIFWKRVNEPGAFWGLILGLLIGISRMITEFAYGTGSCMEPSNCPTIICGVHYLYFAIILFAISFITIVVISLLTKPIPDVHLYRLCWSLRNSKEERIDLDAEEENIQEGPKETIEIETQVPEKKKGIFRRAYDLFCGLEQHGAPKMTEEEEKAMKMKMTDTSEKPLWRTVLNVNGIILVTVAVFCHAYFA
Endpoint Label: IC50 (nM)
Field format: number, assumed nM, no unit text.

Lab book: IC50 of OC[C@H]1O[C@@H](c2ccc(Cl)c(Cc3ccc(-c4ccc(F)nc4)s3)c2)[C@H](O)[C@@H](O)[C@@H]1O noted as 300

---

biological target: hSGLT2 (Homo sapiens); assay: [14C]-αMDG uptake in HEK-293T cells expressing hSGLT2; format: cell-based; parameters: transfected with 1 μg of the vector containing the hSGLT2 or hSGLT1 coding region; expressed in transfected cells; host or cells: HEK-293T; conditions: 50 μmol/L [14C]-αMDG, 1-500 nmol/L extracellular TA-3404, HEK-293T; read-out: IC50, [14C]-αMDG uptake, hSGLT2
Endpoint Label: IC50 (nM)
Field format: number, assumed nM, no unit text.

Lab book: IC50 of OC[C@H]1O[C@@H](c2ccc(Cl)c(Cc3ccc(-c4ccc(F)nc4)s3)c2)[C@H](O)[C@@H](O)[C@@H]1O noted as 3.9

---

target: hSGLT2 (Homo sapiens, UniProt P31639); assay: [14C]-αMDG uptake in HEK-293T cells expressing hSGLT2; type: cell-based; design: transfected with 1 μg of the vector containing the hSGLT2 or hSGLT1 coding region; expressed in transfected cells; host or cells: HEK-293T; details: as stated in the abstract; read-out: IC50, extracellular inhibition of glucose inward SGLT2 transport
Endpoint Label: IC50 (nM)
Field format: number, assumed nM, no unit text.

Lab book: IC50 of OC[C@H]1O[C@@H](c2ccc(Cl)c(Cc3ccc(-c4ccc(F)nc4)s3)c2)[C@H](O)[C@@H](O)[C@@H]1O noted as 2

---

target: hSGLT1 (Homo sapiens); assay: Whole-cell patch clamp, glucose-induced current, extracellular inhibitor, HEK-293T cells expressing hSGLT1
Endpoint Label: pKi
pKi is defined as minus the log10 of a concentration measured in mol/L.

Lab book: pKi of OC[C@H]1O[C@@H](c2ccc(Cl)c(Cc3ccc(-c4ccc(F)nc4)s3)c2)[C@H](O)[C@@H](O)[C@@H]1O [TA‐3404] noted as 6.82
